Target: hOT7T175 (Homo sapiens, UniProt Q969F8)
Construct: expressed in transfected cells
Sequence (Q969F8 whole entry L364H): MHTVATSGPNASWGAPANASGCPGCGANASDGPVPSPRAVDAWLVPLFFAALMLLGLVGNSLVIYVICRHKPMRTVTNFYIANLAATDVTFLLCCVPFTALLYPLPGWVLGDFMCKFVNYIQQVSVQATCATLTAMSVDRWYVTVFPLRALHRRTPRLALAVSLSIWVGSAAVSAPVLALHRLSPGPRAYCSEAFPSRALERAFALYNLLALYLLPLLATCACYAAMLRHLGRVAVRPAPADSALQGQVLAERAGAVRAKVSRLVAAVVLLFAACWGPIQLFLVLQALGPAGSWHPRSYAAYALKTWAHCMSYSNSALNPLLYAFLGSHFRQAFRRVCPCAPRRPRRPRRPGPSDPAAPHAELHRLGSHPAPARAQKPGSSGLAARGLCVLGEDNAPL
Experiment: Intracellular Ca ion level-increasing activity using FLIPR (180 seconds; specific activity to Metastin (1-54))
Format: cell-based
Settings: hOT7T175/CHO, change in intracellular calcium ion level for 180 seconds, Tables 21-23
Non-standard residues stand in square brackets, D forms with d. Residues, ends and D or L forms follow the SMILES beside them. *: point of attachment. Propanoyl(3-(3-pyridyl)) = O=C(CCc1cccnc1)*; Arg(Me) = CNC(=N)NCCC[C@H](N)C(=O)O; d3Pal = N[C@H](Cc1cccnc1)C(=O)O; Hexanoyl = CCCCCC(=O)*; azaGly = NNC(=O)O
Measured intracellular Ca ion level-increasing activity [specific activity to Metastin (1-54)] values are reported for all entries that follow.
Write the number on its own, no unit after it.

Observe how each entry below is paired with its result.
{"molecule": "CNC(=N)NCCC[C@H](NC(=O)[C@H](CC(C)C)NC(=O)NNC(=O)[C@H](Cc1ccccc1)NC(=O)[C@H](CO)NC(=O)[C@H](CC(N)=O)NC(=O)CCc1cccnc1)C(=O)N[C@@H](Cc1ccccc1)C(N)=O [Compound No. 322] ({Propanoyl(3-(3-pyridyl))}-NSF[azaGly]L[Arg(Me)]F-NH2)", "target_system": "hOT7T175 (Homo sapiens, UniProt Q969F8)", "observed": 1}
{"molecule": "CCCCCC(=O)N[C@@H](CC(N)=O)C(=O)N[C@@H](CO)C(=O)N[C@@H](Cc1ccccc1)C(=O)NNC(=O)N[C@@H](CC(C)C)C(=O)N[C@@H](CCCNC(=N)NC)C(=O)N[C@@H](Cc1ccccc1)C(N)=O [Compound No. 277] (Hexanoyl-NSF[azaGly]L[Arg(Me)]F-NH2)", "target_system": "hOT7T175 (Homo sapiens, UniProt Q969F8)", "observed": 2}

Continue with the next molecule.
# input If you can, please state the reported intracellular Ca ion level-increasing activity [specific activity to Metastin (1-54)] value of CNC(=N)NCCC[C@H](NC(=O)[C@H](CC(C)C)NC(=O)NNC(=O)[C@H](Cc1ccccc1)NC(=O)[C@H](CO)NC(=O)[C@H](CC(N)=O)NC(=O)[C@H](Cc1c[nH]c2ccccc12)NC(=O)[C@H](CC(N)=O)NC(=O)[C@H](N)Cc1cccnc1)C(=O)N[C@@H](Cc1ccccc1)C(N)=O [Compound No. 258] (H-[d3Pal]NWNSF[azaGly]L[Arg(Me)]F-NH2) .
# output 2
